# experiment-notes: DDI study: pharmacokinetics of fedratinib in rats with or without antifungal drugs
# Assay type: in vivo, Sprague-Dawley (SD) rats
# condition-summary: male, Sprague-Dawley, rat, plasma, po, 40 mg/kg, 40 mg/kg fedratinib oral gavage, Group E: 20 mg/kg itraconazole 30 min before, n = 6, Mean ± SD
assay-metric: AUC(0-inf) (ng·h/mL)

> print(dat)
                            chemical.string  assay.metric  readout.number
1  Cc1cnc(Nc2ccc(OCCN3CCCC3)cc2)nc1Nc1cccc(S(=O)(=O)NC(C)(C)C)c1    AUC(0-inf)            3320

----------
# experiment-notes: DDI study: pharmacokinetics of fedratinib in rats with or without antifungal drugs
# Format: in vivo, Sprague-Dawley (SD) rats
# condition-summary: male, Sprague-Dawley, rat, plasma, po, 40 mg/kg, 40 mg/kg fedratinib oral gavage, Group C: 20 mg/kg posaconazole 30 min before, n = 6, Mean ± SD
assay-metric: AUC(0-t) (ng·h/mL)

> print(dat)
                                   molecule    units  readout.number
1  Cc1cnc(Nc2ccc(OCCN3CCCC3)cc2)nc1Nc1cccc(S(=O)(=O)NC(C)(C)C)c1 [Fedratinib]  ng·h/mL            2320
